Value source: ChEMBL document CHEMBL3526035

# method: Terminal half life in healthy human at 150 mg, po administered as single dose by HPLC-tandem mass spectrometry under fasting conditions
# Type: ADME, organism-based
# protocolConditions: in vivo, read-out: beta t1/2 (converted)
quantityMeasured: half-life (h)

P = CCOC(=O)C1=C[C@@H](OC(CC)CC)[C@H](NC(C)=O)[C@@H](N)C1
Q = CCC(CC)O[C@@H]1C=C(C(=O)O)C[C@H](N)[C@H]1NC(C)=O [OSELTAMIVIR CARBOXYLATE]
(Q) Input pair: P , Q . Output: entry with lower half-life. Reply with the label of the item you choose.
(A) P

----------
# method: AUC(0 to 6 hrs) in adult fasted Sprague-Dawley rat at 30 mg/kg, po administered as water solution by HPLC-tandem mass spectrometry
# Type: ADME, organism-based
# Set-up: time < 6 hr, dose 30 mg/kg, route oral
# protocolConditions: plasma
quantityMeasured: AUC(0-t) at 6 h (ng·h/mL)

I = CCC(CC)O[C@@H]1C=C(C(=O)O)C[C@H](N)[C@H]1NC(C)=O [OSELTAMIVIR CARBOXYLATE]
II = CCOC(=O)C1=C[C@@H](OC(CC)CC)[C@H](NC(C)=O)[C@@H](N)C1
(Q) Input pair: I , II . Output: entry with lower AUC(0-t) at 6 h. Reply with the label of the item you choose.
(A) II
(II: 2680 ng·h/mL, I: 5910 ng·h/mL)
